For UniProt P00742, measured Ki is reported for the entries below.
Sequence (P00742 41-179 limits assumed): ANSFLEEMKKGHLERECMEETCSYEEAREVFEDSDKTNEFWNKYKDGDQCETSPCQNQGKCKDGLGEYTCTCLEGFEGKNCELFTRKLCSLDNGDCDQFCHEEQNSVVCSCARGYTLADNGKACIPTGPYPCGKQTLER
Sequence (P00742 235-488 limits assumed): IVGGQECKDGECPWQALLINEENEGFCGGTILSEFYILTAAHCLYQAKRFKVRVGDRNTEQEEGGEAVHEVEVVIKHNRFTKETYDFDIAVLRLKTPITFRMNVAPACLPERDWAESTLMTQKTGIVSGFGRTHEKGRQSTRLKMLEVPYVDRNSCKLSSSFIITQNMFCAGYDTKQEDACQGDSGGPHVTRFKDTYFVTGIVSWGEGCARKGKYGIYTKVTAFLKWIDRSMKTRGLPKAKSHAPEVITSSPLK
measured-metric: Ki (nM)

Some solved cases for reference:
{"columns": ["compound", "measured-metric", "endpoint-value"],
 "data": [
  ["N=C(N)c1cccc(Cn2c(C(=O)NCc3ccc(Cl)c(Cl)c3)cc3c(O)cccc32)c1", "Ki", 841],
  ["C[n+]1ccc(CCNC(=O)c2cc3ccccc3n2Cc2cccc(C(=N)N)c2)cc1", "Ki", 1300]
]}

1. CCOC(=O)c1cc2c(C)cccc2n1Cc1cccc(C(=N)N)c1
2. N=C(N)c1cccc(Cn2c(C(=O)NCc3ccc4ccc5cccc6ccc3c4c56)cc3c(O)cccc32)c1
3. N=C(N)c1cccc(Cn2c(C(=O)NCc3cccc4ccccc34)c(Cl)c3ccccc32)c1
4. C#CC[N+](C)(C)c1ccc(CNC(=O)c2cc3cc(F)ccc3n2Cc2cccc(C(=N)N)c2)cc1
5. Cc1cccc2c1cc(C(=O)NCc1ccc([N+](C)(C)Cc3ccccc3)cc1)n2Cc1cccc(C(=N)N)c1
stdin: Kindly order the items shown according to Ki, from the highest value down. # respond with the labels, arranged in the requested order
stdout: 2, 1, 3, 4, 5

a. COc1ccc2cc(C(=O)NCc3ccc([N+](C)(C)C)cc3)n(Cc3cccc(C(=N)N)c3)c2c1
b. Cc1c(C(=O)NCc2cc[n+](C)cc2)n(Cc2cccc(C(=N)N)c2)c2ccccc12
c. CCOC(=O)c1cc2ccccc2n1Cc1cccc(C(=N)N)c1
d. N=C(N)c1cccc(Cn2c(C(=O)NCc3cccc(C(=O)O)c3)cc3c(O)cccc32)c1
stdin: Order by Ki, ascending. Answer by writing out the labels in the requested order.
stdout: b, a, c, d

A. N=C(N)c1cccc(Cn2c(C(=O)NCc3nccc4ccccc34)cc3c(O)cccc32)c1
B. N=C(N)c1cccc(Cn2c(C(=O)NCc3ccccn3)cc3c(O)cccc32)c1
C. C[N+]1(C)CCC(C(NC(=O)c2cc3ccccc3n2Cc2cccc(C(=N)N)c2)c2ccc3cc(Cl)ccc3c2)CC1 (stereo not given)
stdin: Reorder the items by Ki, least to greatest. Use the labels to give the requested order.
stdout: A, C, B
(A: 20 nM, C: 1310 nM, B: 3330 nM)
